# Target Or System: Steroid 17-alpha-hydroxylase/17,20 lyase (Rattus norvegicus)
# Sequence (P11715 whole entry): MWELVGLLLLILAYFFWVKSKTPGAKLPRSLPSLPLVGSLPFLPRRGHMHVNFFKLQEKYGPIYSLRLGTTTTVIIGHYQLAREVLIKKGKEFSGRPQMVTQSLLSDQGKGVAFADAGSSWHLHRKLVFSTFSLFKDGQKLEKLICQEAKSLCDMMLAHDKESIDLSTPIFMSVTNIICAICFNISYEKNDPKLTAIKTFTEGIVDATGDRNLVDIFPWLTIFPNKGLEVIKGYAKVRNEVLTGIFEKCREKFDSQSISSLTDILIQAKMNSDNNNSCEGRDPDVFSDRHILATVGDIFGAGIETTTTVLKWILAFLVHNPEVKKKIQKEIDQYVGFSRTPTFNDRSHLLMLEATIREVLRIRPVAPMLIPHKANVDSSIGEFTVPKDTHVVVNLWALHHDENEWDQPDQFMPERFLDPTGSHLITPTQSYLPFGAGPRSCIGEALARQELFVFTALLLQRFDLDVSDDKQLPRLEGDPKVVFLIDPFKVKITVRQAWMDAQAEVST
# Assay Name: Percent inhibition of rat testicular microsomal Cytochrome P450 17A1
# Set-up: concentration or dose not given beside the values
Kindly supply the reported Inhibition values for the records listed here.

// lookup Inhibition for C[C@]12CCC3C(CC=C4CC(O)CC[C@@]43C)C1CCC2c1ncc[nH]1 (stereo partly drawn)
19%

Next record, please: `C[C@]12CC[C@H](O)CC1=CC[C@@H]1[C@@H]2CC[C@]2(C)C(c3ncc[nH]3)=CC[C@@H]12`
65%

Next record, please: C[C@]12CCC3C(CC=C4CC(O)CC[C@@]43C)C1CCC2c1ccn[nH]1 (stereo partly drawn)
92%
